For each entry below, report its IC50 value.
target: human orexin-2 receptor (Homo sapiens (Human), UniProt O43614); assay: FLIPR Ca2+ Flux Assay, orexin-2 receptor; format: cell-based; details: CHO cells expressing the human orexin-2 receptor; agonist 70 pM Ala-6,12 human orexin-A; read-out: hOX2R FLIPR IC50
Sequence (O43614 whole entry): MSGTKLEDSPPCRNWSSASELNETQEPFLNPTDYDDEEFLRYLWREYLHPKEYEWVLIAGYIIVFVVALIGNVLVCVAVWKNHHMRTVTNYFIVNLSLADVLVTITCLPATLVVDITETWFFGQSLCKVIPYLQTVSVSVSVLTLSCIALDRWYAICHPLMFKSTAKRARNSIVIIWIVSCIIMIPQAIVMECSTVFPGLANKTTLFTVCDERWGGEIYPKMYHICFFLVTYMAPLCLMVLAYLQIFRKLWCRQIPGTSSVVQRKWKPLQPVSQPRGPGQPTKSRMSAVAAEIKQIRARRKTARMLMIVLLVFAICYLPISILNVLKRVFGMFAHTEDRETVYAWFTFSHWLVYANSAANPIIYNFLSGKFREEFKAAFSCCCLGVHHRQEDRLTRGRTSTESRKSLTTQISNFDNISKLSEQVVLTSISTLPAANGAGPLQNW
Give just the number in nM; leave the unit off.

Ask: Would you mind telling me what IC50 value was observed for Cc1c(C#N)ccnc1O[C@@H]1CC[C@@H](C)N(C(=O)c2c(F)cccc2-n2nccn2)C1 ?
Result: 10

Ask: Would you mind telling me what IC50 value was observed for Cc1c(C#N)ccnc1O[C@@H]1CC[C@@H](C)N(C(=O)c2ccccc2-c2cscn2)C1 ?
Result: 6

Ask: Would you mind telling me what IC50 value was observed for Cc1cccc(-n2nccn2)c1C(=O)N1C[C@H](Oc2nccc(C#N)c2C)CC[C@H]1C ?
Result: 12

Ask: Would you mind telling me what IC50 value was observed for COc1cccc(-n2nccn2)c1C(=O)N1C[C@H](Oc2nccc(C#N)c2C)CC[C@H]1C ?
Result: 15

---

target: human orexin-2 receptor (Homo sapiens (Human), UniProt O43614); experiment: FLIPR Ca2+ Flux Assay, orexin-2 receptor; format: cell-based; conditions: CHO cells expressing the human orexin-2 receptor; agonist 70 pM Ala-6,12 human orexin-A; read-out: hOX2R FLIPR IC50
For each entry below, report its IC50 value.
Give just the number in µM; leave the unit off.

Ask: API: value(readout= IC50, system= human orexin-2 receptor (Homo sapiens (Human), UniProt O43614), query= Cc1c(C#N)ccnc1O[C@@H]1CC[C@@H](C)N(C(=O)c2sccc2-c2ncccn2)C1 )
Result: 0.015

Ask: API: value(readout= IC50, system= human orexin-2 receptor (Homo sapiens (Human), UniProt O43614), query= COc1ccc(C(=O)N2C[C@H](Oc3nccc(C#N)c3C)CC[C@H]2C)c(-c2ccnn2C)n1 )
Result: 0.0856

Ask: API: value(readout= IC50, system= human orexin-2 receptor (Homo sapiens (Human), UniProt O43614), query= Cc1c(C#N)ccnc1O[C@@H]1CC[C@@H](C)N(C(=O)c2ccc(CO)cc2-c2ccccc2)C1 )
Result: 0.037

Ask: API: value(readout= IC50, system= human orexin-2 receptor (Homo sapiens (Human), UniProt O43614), query= Cc1c(C#N)ccnc1O[C@@H]1CC[C@@H](C)N(C(=O)c2ccc(Cl)nc2-n2nccn2)C1 )
Result: 0.075

Ask: API: value(readout= IC50, system= human orexin-2 receptor (Homo sapiens (Human), UniProt O43614), query= Cc1c(C#N)ccnc1O[C@@H]1CC[C@@H](C)N(C(=O)c2ccc(Cl)cc2-n2nccn2)C1 )
Result: 0.012

Ask: API: value(readout= IC50, system= human orexin-2 receptor (Homo sapiens (Human), UniProt O43614), query= Cc1c(C#N)ccnc1O[C@@H]1CC[C@@H](C)N(C(=O)C2=C(c3ccccn3)CCC2)C1 )
Result: 0.059

---

For each entry below, report its Ki value.
target: human orexin-2 receptor (Homo sapiens (Human)); assay: radioligand binding assay, orexin-2 receptor; conditions: membranes prepared from CHO cells expressing the OX2 receptor; read-out: hOX2R BIND hKi
Give just the number in nM; leave the unit off.

Ask: API: value(readout= Ki, system= human orexin-2 receptor (Homo sapiens (Human)), query= Cc1nsc(-c2ccccc2)c1C(=O)N1C[C@H](Oc2nccc(C#N)c2C)CC[C@H]1C )
Result: 4.9

Ask: API: value(readout= Ki, system= human orexin-2 receptor (Homo sapiens (Human)), query= Cc1c(C#N)ccnc1O[C@@H]1CC[C@@H](C)N(C(=O)c2ccsc2-c2cscn2)C1 )
Result: 0.8

Ask: API: value(readout= Ki, system= human orexin-2 receptor (Homo sapiens (Human)), query= CSc1ccc(C(=O)N2C[C@H](Oc3nccc(C#N)c3C)CC[C@H]2C)c(-n2nccn2)n1 )
Result: 5.1
